In this section, each of the compounds is paired with its reported %Inh.
Test system: EPHA7;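 further: KINOMEscan kinase panel screen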
Condition summary: concentration: 1 μM, replicates: in singlicate; n = 1

| Compound | %Inh [%] |
| --- | --- |
| Cc1cccc(-c2cc(-c3c[nH]nc3-c3ccccn3)ccn2)c1 | 0 |
| CCC(=O)c1c(-c2ccccc2)c2cc(Cl)ccc2c(=O)n1Cc1cc(S(C)(=O)=O)n(CC(N)=O)n1 | 0 |
| COc1cc(Nc2nccc(N3CCC(NC(=O)C4COc5ccccc5O4)C3)n2)cc(OC)c1OC (stereo not drawn) | 0 |
| Nc1n[nH]c2ncc(-c3ccccc3)cc12 | 5 |
| O=C(Nc1ccc2c(c1)OCO2)NC1CCN(c2ccnc(NCc3ccc(F)cc3)n2)CC1 | 1 |
| COc1cccc(C2=C(Nc3cccc(C(=O)O)c3)C(=O)NC2=O)c1 | 0 |
| Nc1ncnc2c1ncn2-c1cccc2ccccc12 | 0 |
| CCc1nc(-c2cccc(C)c2)c(-c2ccncc2)s1 | 0 |
| COC(=O)c1c(-c2ccccc2)c2cc(Br)ccc2c(=O)n1Cc1ccc(S(C)(=O)=O)cc1 | 24 |

Attribution: paper PMC5540273
